biological target: pooled human IgG (human IgG1,2,3 and 4)
Hi there, I'd appreciate the recorded Enzyme activity endpoint: IgG for every entry that follows.
Reply with just the number (in ng/µL).

query: Can you share its Enzyme activity endpoint: IgG? I mean this protein: PRT-631 (protein) MQITSVWTKGVTPLTPEQFRYNNEDVIHAPYLAHQGWYDITKAFDGKDNLLCGAATAGNMLHWWFDQNKEEIDNYLKKYPDKQKIIFNNQELFDLKAAIDTKDSQTNSQLFNYFRDKAFPNLSARQLGVMPDLVLDMFINGYYLNVFKTQSTDVNRPYQDKDKRGGIFDAVFTRGDQTTLLTARHDLKNKGLNDISTIIKQELTEGRALALSHTYANVSISHVINLWGADFNAEGNLEAIYVTDSDANASIGMKKYFVGINAHGHVAISAKKIEGENIGAQVLGLFTLSSGKEIWKKLSLEHHHHHH
result: 0

query: // query: PRT-617 (protein) MQITSVWTKGVTPLTPEQFRYNNEDVIHAPYLPHQGWYDITKAFDGGDNLLCGAATAGNMLHWWFDQNKTEIEAYLSKYPEKQKIIFNNQELFDLRAAINSKDSQTNSQLFNYFRDKAFPNLSARQLGVMPDLVLDMFINGYYLNVFKTQSTDVNRPYQDPDKRGGIFDDVFKEGDQTTLLTARHDLKNGGLNDISTIIKQELQSGRALALSHTYANVSISHVINLWGADFNAEGNLEAIYVTDSDANQSIGMKKYKVGINAHGHVAISAKKIEGENIGAQVLGLFTLSSGKEIWQKLSLEHHHHHH
result: 798

query: // query: PRT-628 (protein) MQITSVWTKGVTPLTPEQFRYNNEDVIHAPYLAHQGWYDITKAFDGKDNLLCGAATAGNMLHWWFDQNKEEIEAYLKKHPEKQKIIFNNQELFDLKAAIDTKDSQTNSQLFNYFRDKAFPNLSARQLGVMPDLVLDMFINGYYLNVFKTQSTDVNRPYQDKDKRGGIFDAVFTRGDQTTLLTARHDLKNKGLNDISTIIKQELTEGRALALSHTYANVSISHVINLWGADFNAEGNLEAIYVTDSDANASIGMKKYFVGINAHGHVAISAKKIEGENIGAQVLGLFTLSSGQDIWQQLSLEHHHHHH
result: 0
